Ref: patent US9499502B2

- target.under.test: purified human autoBACE-2 (Homo sapiens (Human))
- method.notes: BACE-2 Assay (BACE-HTRF assay)
- Type: biochemical
- test.context: Ki calculated from IC50 using the Cheng-Prusoff equation; read-out: BACE2 Ki
recorded.endpoint: Ki

molecule: CC1(C)C(=N)N[C@](C)(c2sc(C(=O)Nc3cccc(Cl)n3)cc2Cl)CS1(=O)=O
recorded.endpoint: Ki
value.reported: 8 nM

molecule: COc1cnc(C(=O)Nc2ccc(F)c([C@]3(C)CS(=O)(=O)[C@](C)(c4ccc(F)cc4)C(=N)N3)c2)cn1
recorded.endpoint: Ki
value.reported: 101 to 700 nM

molecule: CC1(C)C(=N)N[C@](C)(c2cc(NC(=O)c3ccc(C(F)(F)F)cn3)cc(F)c2F)CS1(=O)=O
recorded.endpoint: Ki
value.reported: 11 nM

molecule: COc1cnc(C(=O)Nc2ccc(F)c([C@]3(C)CS(=O)(=O)C(C)(C)C(=N)N3)c2F)cn1
recorded.endpoint: Ki
value.reported: 59 nM

molecule: COc1ccc(C(=O)Nc2ccc(F)c([C@]3(C)CS(=O)(=O)[C@](C)(c4ccccn4)C(=N)N3)c2)nc1
recorded.endpoint: Ki
value.reported: 101 to 700 nM

molecule: COc1ccc(C(=O)Nc2ccc(F)c([C@]3(C)CS(=O)(=O)[C@@](C)(c4cccc(F)c4)C(=N)N3)c2)nc1
recorded.endpoint: Ki
value.reported: 11 to 100 nM

molecule: CC1(C)C(=N)N[C@](C)(c2sc(-c3nnc(-c4ccc(Cl)cc4)o3)cc2Cl)CS1(=O)=O [Example 27bc]
recorded.endpoint: Ki
value.reported: ≤ 20 nM

---

Recorded Ki, one value per entry.
- target.under.test: purified human autoBACE-2 (Homo sapiens (Human), UniProt Q9Y5Z0)
- Sequence (Q9Y5Z0 63-473): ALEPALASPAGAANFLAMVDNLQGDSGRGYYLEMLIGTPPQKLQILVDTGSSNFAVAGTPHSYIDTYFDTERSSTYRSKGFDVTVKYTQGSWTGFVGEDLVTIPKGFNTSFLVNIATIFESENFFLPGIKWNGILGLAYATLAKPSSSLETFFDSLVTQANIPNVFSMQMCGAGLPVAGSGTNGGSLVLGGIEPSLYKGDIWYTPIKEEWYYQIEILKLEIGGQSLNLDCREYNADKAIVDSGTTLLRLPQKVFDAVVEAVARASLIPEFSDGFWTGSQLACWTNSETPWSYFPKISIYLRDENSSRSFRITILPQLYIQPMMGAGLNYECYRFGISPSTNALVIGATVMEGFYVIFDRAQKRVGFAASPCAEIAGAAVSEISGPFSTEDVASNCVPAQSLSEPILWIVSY
- method.notes: BACE-2 Assay (BACE-HTRF assay)
- Type: biochemical
- test.context: Ki calculated from IC50 using the Cheng-Prusoff equation; read-out: BACE2 Ki
- Protocol: Inhibitor IC50s at purified human autoBACE-2 are determined in a time-resolved endpoint proteolysis assay that measures hydrolysis of the QSY7-[…]-Eu-amide FRET peptide substrate (BACE-HTRF assay). […] Following laser excitation of sample wells at 320 nm, the fluorescence signal at 620 nm is collected for 400 ms following a 50 μs delay on a RUBYstar HTRF plate reader (BMG Labtechnologies). […] The Ki values are calculated from the IC50 using the Cheng-Prusoff equation.

compound: CC1(C)C(=N)N[C@](C)(c2cc(NC(=O)C3CCC3(F)F)ccc2F)CS1(=O)=O (stereo partly shown) [Example 9aw]
quantity.unit: nM
Ki: 47
//
compound: CC1(C)C(=N)N[C@](C)(c2nc(NC(=O)c3cnc(C(F)F)cn3)ccc2F)CS1(=O)=O [Example 9cj]
quantity.unit: nM
Ki: 21
//
compound: COc1cccc(-c2cc(F)c([C@]3(C)CS(=O)(=O)[C@@](C)(CC(F)(F)F)C(=N)N3)s2)c1 [Example 27bl-a]
quantity.unit: nM
Ki: 9
//
compound: COc1cnc(C(=O)Nc2ccc(F)c([C@]3(C)CS(=O)(=O)C(C)(C)C(=N)N3)n2)cn1 [Example 9cg]
quantity.unit: nM
Ki: 85

---

- target.under.test: purified human autoBACE-2 (Homo sapiens (Human), UniProt Q9Y5Z0)
- method.notes: BACE-2 Assay (BACE-HTRF assay)
- Format: biochemical
- test.context: Ki calculated from IC50 using the Cheng-Prusoff equation; read-out: BACE2 Ki
pKi: −log10 of the molar value.
The threshold is inclusive: pKi of exactly 7 counts as YES; values below receive NO.

molecule: COc1ccc(C(=O)Nc2ccc(F)c([C@]3(C)CS(=O)(=O)C(C)(C)C(=N)N3)c2F)nc1 [Example 9y]
assigned.category: YES
//
molecule: Cc1nnc(C(=O)Nc2ccc(F)c([C@]3(C)CS(=O)(=O)C(C)(C)C(=N)N3)c2)o1 [Example 9i]
assigned.category: YES
//
molecule: CC1(C)C(=N)N[C@](C)(c2sc(-c3cncc(Cl)c3)cc2Cl)CS1(=O)=O [Example 27l]
assigned.category: YES
//
molecule: CC1(C)C(=N)N[C@](C)(c2sc(-c3nnc(-c4ccc(F)cc4)o3)cc2F)CS1(=O)=O [Example 27bg]
assigned.category: YES
//
molecule: CC1(C)C(=N)N[C@](C)(c2cc(Nc3noc4cc(F)cnc34)ccc2F)CS1(=O)=O [Example 30b]
assigned.category: YES
//
molecule: COc1cnc(C(=O)Nc2cc([C@]3(C)CS(=O)(=O)C(C)(C)C(=N)N3)c(F)cc2Br)cn1 [Example 9by]
assigned.category: NO
//
molecule: CC1(C)C(=N)N[C@](C)(c2sc(-c3cccc(-c4nnco4)c3)cc2Cl)CS1(=O)=O [Example 27ae]
assigned.category: YES
//
molecule: CC1(C)C(=N)N[C@](C)(c2sc(-c3nnc(-c4ccc(F)cc4)o3)cc2Cl)CS1(=O)=O [Example 27bb]
assigned.category: YES
//
molecule: COc1ccc(-c2nnc(-c3cc(F)c([C@]4(C)CS(=O)(=O)C(C)(C)C(=N)N4)s3)o2)cc1 [Example 27bh]
assigned.category: YES
//
molecule: CC1(C)C(=N)N[C@](C)(c2sc(N3Cc4cc(F)ccc4C3=O)cc2Cl)CS1(=O)=O [Example 35a]
assigned.category: NO

---

- target.under.test: soluble human BACE1 catalytic domain (Homo sapiens (Human), UniProt P56817)
- Sequence (P56817 75-416): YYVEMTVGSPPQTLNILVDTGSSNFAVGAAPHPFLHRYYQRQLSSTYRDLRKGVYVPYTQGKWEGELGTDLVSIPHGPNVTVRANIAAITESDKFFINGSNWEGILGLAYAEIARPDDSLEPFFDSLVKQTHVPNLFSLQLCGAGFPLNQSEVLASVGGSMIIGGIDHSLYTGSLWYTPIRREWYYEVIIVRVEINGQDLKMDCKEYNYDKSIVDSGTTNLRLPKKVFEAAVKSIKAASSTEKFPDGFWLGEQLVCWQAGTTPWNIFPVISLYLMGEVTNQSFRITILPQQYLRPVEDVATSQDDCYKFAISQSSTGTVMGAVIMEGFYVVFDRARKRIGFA
- method.notes: BACE1 HTRF FRET Assay
- test.context: read-out: BACE1 Ki; Ki calculated from IC50 using the Cheng-Prusoff equation

compound: COc1cnc(C(=O)Nc2ccc(F)c([C@]3(C)CS(=O)(=O)[C@](C)(CC4CC4)C(=N)N3)c2)cn1
target.under.test: soluble human BACE1 catalytic domain (Homo sapiens (Human), UniProt P56817)
Ki: 0.0426 µM
//
compound: COc1cnc(C(=O)Nc2cc([C@]3(C)CS(=O)(=O)C(C)(C)C(=N)N3)c(F)cc2Br)cn1
target.under.test: soluble human BACE1 catalytic domain (Homo sapiens (Human), UniProt P56817)
Ki: 0.718 µM
//
compound: CC1(C(=O)Nc2cc(F)c(F)c([C@]3(C)CS(=O)(=O)C(C)(C)C(=N)N3)c2)CC1
target.under.test: soluble human BACE1 catalytic domain (Homo sapiens (Human), UniProt P56817)
Ki: 0.708 µM
//
compound: COc1cnc(C(=O)Nc2ccc(F)c([C@]3(C)CS(=O)(=O)[C@@](C)(C4CCOCC4)C(=N)N3)c2)cn1
target.under.test: soluble human BACE1 catalytic domain (Homo sapiens (Human), UniProt P56817)
Ki: 0.0034 µM
//
compound: C[C@@]1(c2cc(NC(=O)c3ccc(C(F)(F)F)cn3)ccc2F)CS(=O)(=O)[C@@](C)(C2CCC2)C(=N)N1
target.under.test: soluble human BACE1 catalytic domain (Homo sapiens (Human), UniProt P56817)
Ki: 0.0034 µM
//
compound: COCC(=O)Nc1ccc(F)c([C@]2(C)CS(=O)(=O)[C@@](C)(c3cccc(C(F)(F)F)c3)C(=N)N2)c1
target.under.test: soluble human BACE1 catalytic domain (Homo sapiens (Human), UniProt P56817)
Ki: 0.018 µM
//
compound: COc1cnc(C(=O)Nc2cc(Cl)c(F)c([C@]3(C)CS(=O)(=O)C(C)(C)C(=N)N3)c2)cn1
target.under.test: soluble human BACE1 catalytic domain (Homo sapiens (Human), UniProt P56817)
Ki: 0.0044 µM
//
compound: CC1(C)C(=N)N[C@](C)(c2sc(-c3cncc(C#N)c3)cc2Cl)CS1(=O)=O
target.under.test: soluble human BACE1 catalytic domain (Homo sapiens (Human), UniProt P56817)
Ki: 0.063 µM
//
compound: C[C@]1(CC2CCOCC2)C(=N)N[C@](C)(c2cc(NC(=O)c3ccc(F)cn3)ccc2F)CS1(=O)=O
target.under.test: soluble human BACE1 catalytic domain (Homo sapiens (Human), UniProt P56817)
Ki: 0.0021 µM
//
compound: COc1cnc(C(=O)Nc2ccc(F)c([C@]3(C)CS(=O)(=O)C(C)(C)C(=N)N3)c2F)cn1
target.under.test: soluble human BACE1 catalytic domain (Homo sapiens (Human), UniProt P56817)
Ki: 0.0529 µM
//
compound: COc1cnc(C(=O)Nc2cc(F)c(F)c([C@]3(C)CS(=O)(=O)C(C)(C)C(=N)N3)c2F)cn1
target.under.test: soluble human BACE1 catalytic domain (Homo sapiens (Human), UniProt P56817)
Ki: 0.0454 µM
//
compound: COc1cnc(C(=O)Nc2ccc(F)c([C@]3(C)CS(=O)(=O)C(C)(C)C(=N)N3)c2)c(F)c1
target.under.test: soluble human BACE1 catalytic domain (Homo sapiens (Human), UniProt P56817)
Ki: 0.0054 µM
//
compound: COc1ccc(C(=O)Nc2cc(Cl)c(F)c([C@]3(C)CS(=O)(=O)C(C)(C)C(=N)N3)c2)nc1
target.under.test: soluble human BACE1 catalytic domain (Homo sapiens (Human), UniProt P56817)
Ki: 0.0058 µM
//
compound: C[C@@]1(c2ccccn2)C(=N)N[C@](C)(c2cc(NC(=O)c3ccc(F)cn3)ccc2F)CS1(=O)=O
target.under.test: soluble human BACE1 catalytic domain (Homo sapiens (Human), UniProt P56817)
Ki: 0.187 µM
//
compound: CC1(C)C(=N)N[C@](C)(c2nc(NC(=O)c3ccc(F)cn3)ccc2F)CS1(=O)=O
target.under.test: soluble human BACE1 catalytic domain (Homo sapiens (Human), UniProt P56817)
Ki: 0.048 µM
//
compound: C[C@@]1(c2cc(NC(=O)c3ccc(C(F)(F)F)cn3)ccc2F)CS(=O)(=O)[C@@](C)(c2ccccn2)C(=N)N1
target.under.test: soluble human BACE1 catalytic domain (Homo sapiens (Human), UniProt P56817)
Ki: 0.006 µM
//
compound: CC1(C)C(=N)N[C@](C)(c2cc(NC(=O)c3cnc(C(F)(F)F)cn3)ccc2F)CS1(=O)=O
target.under.test: soluble human BACE1 catalytic domain (Homo sapiens (Human), UniProt P56817)
Ki: 0.0007 µM
//
compound: CC1(C)C(=N)N[C@](C)(c2sc(C(=O)NCc3cccc(F)c3)cc2Cl)CS1(=O)=O [Example 22i]
target.under.test: soluble human BACE1 catalytic domain (Homo sapiens (Human), UniProt P56817)
Ki: 1.16 µM
//
compound: CC1(C)C(=N)N[C@](C)(c2cc(NC(=O)C3CC3)ccc2F)CS1(=O)=O
target.under.test: soluble human BACE1 catalytic domain (Homo sapiens (Human), UniProt P56817)
Ki: 0.359 µM
//
compound: CC1(C)C(=N)N[C@](C)(c2cc(NC(=O)c3ccc(Cl)cn3)cc(Cl)c2F)CS1(=O)=O
target.under.test: soluble human BACE1 catalytic domain (Homo sapiens (Human), UniProt P56817)
Ki: 0.0033 µM
//
compound: CC1(C)C(=N)N[C@](C)(c2cc(NC(=O)c3ccc(C(F)(F)F)cn3)cc(Cl)c2F)CS1(=O)=O
target.under.test: soluble human BACE1 catalytic domain (Homo sapiens (Human), UniProt P56817)
Ki: 0.0096 µM
//
compound: COc1ccc(C(=O)Nc2ccc(F)c([C@]3(C)CS(=O)(=O)[C@@](C)(CC(F)(F)F)C(=N)N3)c2)nc1
target.under.test: soluble human BACE1 catalytic domain (Homo sapiens (Human), UniProt P56817)
Ki: 0.0085 µM
//
compound: COc1ccc(C(=O)Nc2ccc(F)c([C@]3(C)CS(=O)(=O)C(C)(C)C(=N)N3)c2)nc1
target.under.test: soluble human BACE1 catalytic domain (Homo sapiens (Human), UniProt P56817)
Ki: 0.0046 µM
//
compound: Cc1cnc(C(=O)Nc2ccc(F)c([C@]3(C)CS(=O)(=O)C(C)(C)C(=N)N3)c2)cn1
target.under.test: soluble human BACE1 catalytic domain (Homo sapiens (Human), UniProt P56817)
Ki: 0.026 µM
//
compound: CC1(C)C(=N)N[C@](C)(c2sc(C(=O)NCc3ccsn3)cc2Cl)CS1(=O)=O [Example 22v]
target.under.test: soluble human BACE1 catalytic domain (Homo sapiens (Human), UniProt P56817)
Ki: 0.292 µM
//
compound: CC1(C)C(=N)N[C@](C)(c2sc(C(=O)NCc3cccc(-c4ccon4)c3)cc2Cl)CS1(=O)=O [Example 22g]
target.under.test: soluble human BACE1 catalytic domain (Homo sapiens (Human), UniProt P56817)
Ki: 0.736 µM
//
compound: CC1(C(=O)Nc2cc(F)c(F)c([C@]3(C)CS(=O)(=O)C(C)(C)C(=N)N3)c2)COC1
target.under.test: soluble human BACE1 catalytic domain (Homo sapiens (Human), UniProt P56817)
Ki: 1.15 µM
//
compound: CC1(C)C(=N)N[C@](C)(c2nc(NC(=O)c3cnc(Br)cn3)ccc2F)CS1(=O)=O
target.under.test: soluble human BACE1 catalytic domain (Homo sapiens (Human), UniProt P56817)
Ki: 0.0217 µM
//
compound: COc1ccc(C(=O)Nc2ccc(F)c([C@]3(C)CS(=O)(=O)[C@](C)(CC(F)(F)F)C(=N)N3)c2)nc1
target.under.test: soluble human BACE1 catalytic domain (Homo sapiens (Human), UniProt P56817)
Ki: 0.0543 µM
